MEASUREMENT TARGET: mouse TMEM16A mutant S517A (Mus musculus, UniProt Q8BHY3, S517A)
Construct: expressed in transfected cells; host or cells: HEK293T
MEASUREMENT PROTOCOL: Inside-out patch recording of 1PBC block, mutant S517A
Type: cell-based
ASSAY CONTEXT: 120 mV; 2 µM Ca2+
QUANTITY MEASURED: IC50 (µM)
The reply should contain only the number, in µM.

Given N#Cc1c(C(F)(F)F)cc(O)n2c1nc1ccccc12 , respond with its IC50.
2.29

----------
MEASUREMENT TARGET: mouse TMEM16A mutant K603Q (Mus musculus, UniProt Q8BHY3, K603Q)
Construct: expressed in transfected cells; host or cells: HEK293T
Sequence (Q8BHY3 1-960 K603Q): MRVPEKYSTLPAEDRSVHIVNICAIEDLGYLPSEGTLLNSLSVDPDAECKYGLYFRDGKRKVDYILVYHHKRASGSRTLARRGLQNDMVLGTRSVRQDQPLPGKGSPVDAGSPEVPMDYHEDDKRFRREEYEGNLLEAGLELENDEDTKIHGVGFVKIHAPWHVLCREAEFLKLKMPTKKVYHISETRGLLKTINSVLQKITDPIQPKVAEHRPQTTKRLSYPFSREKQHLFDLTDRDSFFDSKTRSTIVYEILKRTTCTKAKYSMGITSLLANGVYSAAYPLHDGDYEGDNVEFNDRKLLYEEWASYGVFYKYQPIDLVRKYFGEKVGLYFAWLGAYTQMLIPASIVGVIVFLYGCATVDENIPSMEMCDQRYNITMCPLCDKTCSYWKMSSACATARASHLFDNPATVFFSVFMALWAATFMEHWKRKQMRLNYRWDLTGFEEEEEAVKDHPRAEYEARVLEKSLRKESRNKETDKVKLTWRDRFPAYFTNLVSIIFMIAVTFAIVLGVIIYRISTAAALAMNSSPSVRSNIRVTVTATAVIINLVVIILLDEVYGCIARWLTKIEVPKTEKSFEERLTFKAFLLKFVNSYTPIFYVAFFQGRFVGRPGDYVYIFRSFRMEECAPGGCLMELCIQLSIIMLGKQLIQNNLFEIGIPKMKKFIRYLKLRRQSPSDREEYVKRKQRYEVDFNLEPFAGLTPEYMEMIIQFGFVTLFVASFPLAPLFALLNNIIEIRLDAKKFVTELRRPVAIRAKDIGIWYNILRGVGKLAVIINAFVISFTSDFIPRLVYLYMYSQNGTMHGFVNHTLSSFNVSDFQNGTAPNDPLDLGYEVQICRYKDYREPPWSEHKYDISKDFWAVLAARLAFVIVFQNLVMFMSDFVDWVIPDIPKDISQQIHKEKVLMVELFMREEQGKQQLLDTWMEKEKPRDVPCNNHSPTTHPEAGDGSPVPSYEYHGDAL
MEASUREMENT PROTOCOL: Inside-out patch recording of 1PBC block, mutant K603Q
Assay type: cell-based
ASSAY CONTEXT: K603Q; V -100 mV
QUANTITY MEASURED: pIC50
Hey, just a heads up that pIC50 is the negative log base 10 of the concentration in molar.

Answer briefly: pIC50 recorded on mouse TMEM16A mutant K603Q (Mus musculus, UniProt Q8BHY3, K603Q) for N#Cc1c(C(F)(F)F)cc(O)n2c1nc1ccccc12 [1PBC]
3.70

----------
MEASUREMENT TARGET: mouse TMEM16A mutant Y514A (Mus musculus, UniProt Q8BHY3, Y514A)
Construct: expressed in transfected cells; host or cells: HEK293T
Sequence (Q8BHY3 1-960 Y514A): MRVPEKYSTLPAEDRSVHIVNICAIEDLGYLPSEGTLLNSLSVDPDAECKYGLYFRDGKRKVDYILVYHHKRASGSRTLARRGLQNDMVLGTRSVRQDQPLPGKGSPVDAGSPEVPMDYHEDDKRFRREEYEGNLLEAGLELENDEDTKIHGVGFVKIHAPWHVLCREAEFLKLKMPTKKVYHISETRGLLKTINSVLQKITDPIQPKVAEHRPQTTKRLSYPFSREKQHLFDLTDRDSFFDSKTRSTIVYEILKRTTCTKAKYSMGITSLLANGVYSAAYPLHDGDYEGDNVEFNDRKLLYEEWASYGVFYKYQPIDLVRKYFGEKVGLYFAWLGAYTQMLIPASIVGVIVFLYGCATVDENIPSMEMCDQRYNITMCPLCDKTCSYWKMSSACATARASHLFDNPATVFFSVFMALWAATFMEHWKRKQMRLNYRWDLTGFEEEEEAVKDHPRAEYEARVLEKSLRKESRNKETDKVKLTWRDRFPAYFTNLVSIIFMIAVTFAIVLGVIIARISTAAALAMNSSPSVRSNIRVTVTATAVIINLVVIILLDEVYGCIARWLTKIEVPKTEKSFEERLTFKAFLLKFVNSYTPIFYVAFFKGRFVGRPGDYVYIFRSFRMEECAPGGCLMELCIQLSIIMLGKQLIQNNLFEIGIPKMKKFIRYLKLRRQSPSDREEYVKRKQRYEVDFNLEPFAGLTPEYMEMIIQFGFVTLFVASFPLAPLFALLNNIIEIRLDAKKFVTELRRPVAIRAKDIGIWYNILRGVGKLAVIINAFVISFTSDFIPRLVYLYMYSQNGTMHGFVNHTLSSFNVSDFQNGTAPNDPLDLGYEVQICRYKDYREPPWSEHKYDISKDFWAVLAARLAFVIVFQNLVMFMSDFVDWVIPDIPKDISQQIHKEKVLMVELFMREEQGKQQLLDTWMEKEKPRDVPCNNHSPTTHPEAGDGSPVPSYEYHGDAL
MEASUREMENT PROTOCOL: Inside-out patch recording of 1PBC block, mutant Y514A
Type: cell-based
ASSAY CONTEXT: 120 mV; 2 µM Ca2+
QUANTITY MEASURED: pIC50
Hey, just a heads up that pIC50 is the negative log base 10 of the concentration in molar.

Answer briefly: pIC50 recorded on mouse TMEM16A mutant Y514A (Mus musculus, UniProt Q8BHY3, Y514A) for N#Cc1c(C(F)(F)F)cc(O)n2c1nc1ccccc12
4.95
